Test system: NCI-H2023
Experiment description: relative viability (nuclei count vs DMSO), 5 days (fraction); higher = more cells survive
Cond: first compound 0.6325 µM
Exercise: state measured relative viability for each of the molecules provided.

Fill in the blank: the reported relative viability of COCC1(CO)C(=O)C2CCN1CC2 (stereo not given) [PRIMA-1MET] + Cc1cc(Nc2cc(N3CCN(C)CC3)nc(Sc3ccc(NC(=O)C4CC4)cc3)n2)n[nH]1 [Tozasertib] (partner 0.1 µM) is ____. 0.327

Same again, this time with COCC1(CO)C(=O)C2CCN1CC2 (stereo not given) [PRIMA-1MET] + Cc1nc(NC(=O)N2CCC[C@H]2C(N)=O)sc1-c1ccnc(C(C)(C)C(F)(F)F)c1 [Alpelisib] (partner 2 µM) 0.69

Then COCC1(CO)C(=O)C2CCN1CC2 (stereo not given) [PRIMA-1MET] + CS(=O)(=O)N1CCN(Cc2cc3nc(-c4cccc5[nH]ncc45)nc(N4CCOCC4)c3s2)CC1 [Pictilisib] (partner 1 µM) ? 0.196

Note, next up: COCC1(CO)C(=O)C2CCN1CC2 (stereo not given) [PRIMA-1MET] + COc1cccc2cc(-c3nc([C@H]4CC[C@H](C(=O)O)CC4)n4ncnc(N)c34)[nH]c12 [OSI-027] (partner 0.5 µM) 0.366

Same for COCC1(CO)C(=O)C2CCN1CC2 (stereo not given) [PRIMA-1MET] + N=C(N)NC(=N)NCCc1ccccc1 [Phenformin] (partner 250 µM) 0.447
